- EXPERIMENTAL_TARGET: recombinant human PAI-1 (Homo sapiens, UniProt P05121)
- Construct: purchased Molecular Innovations, Inc
- Sequence (P05121 24-402): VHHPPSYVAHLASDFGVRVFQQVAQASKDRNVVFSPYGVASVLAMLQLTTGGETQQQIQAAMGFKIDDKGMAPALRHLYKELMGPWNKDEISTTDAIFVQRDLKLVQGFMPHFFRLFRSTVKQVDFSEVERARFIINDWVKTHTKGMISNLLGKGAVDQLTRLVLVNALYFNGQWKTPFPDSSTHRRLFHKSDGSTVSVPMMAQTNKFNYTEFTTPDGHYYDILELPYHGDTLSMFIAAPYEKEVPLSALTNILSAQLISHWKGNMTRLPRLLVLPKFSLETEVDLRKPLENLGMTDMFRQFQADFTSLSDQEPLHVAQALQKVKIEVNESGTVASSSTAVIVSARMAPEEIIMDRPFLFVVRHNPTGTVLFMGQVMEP
- ASSAY_REMARKS: Test Example 2: human PAI-1 inhibitory activity (tPA fluorogenic substrate, pH 7.4 HEPES buffer)
- Type: biochemical
- CONDITION_PARAMETERS: human PAI-1; compound concentration 0.1 μM
READOUT_KIND: Inhibition Rate of PAI-1 Activity (%)

Please review the entries below; each comes with its answer.
- MOLECULE: "CC(C)(C)c1ccc(-c2ccc(/C=C/C(=O)O)c(Oc3ccc(OC(F)(F)F)cc3)c2)cc1 [Compound 478]"
  Inhibition Rate of PAI-1 Activity (%): 11
- MOLECULE: "O=C(O)/C=C/c1ccc(-c2ccc(OC(F)(F)F)cc2)cc1OCCCSc1ccccc1 [Compound 489]"
  Inhibition Rate of PAI-1 Activity (%): 12
- MOLECULE: "O=C(O)COc1ccc(-c2ccc(OC(F)(F)F)cc2)cc1Oc1ccc(OCc2ccccc2)cc1 [Compound 492]"
  Inhibition Rate of PAI-1 Activity (%): 5
- MOLECULE: "CC(C)(C)c1ccc(Oc2cc(-c3ccccc3OC(F)(F)F)ccc2OCC(=O)O)cc1 [Compound 456]"
  Inhibition Rate of PAI-1 Activity (%): 7
- MOLECULE: "CCCCCCOc1ccc(-c2ccc(OC(F)(F)F)cc2)cc1OC(CCCCCC)C(=O)O (stereo not shown) [Compound 429]"
  Inhibition Rate of PAI-1 Activity (%): 7

P: CCCCC(C(=O)O)N(Cc1ccc(C(C)(C)C)cc1)c1cccc(-c2ccc(OC(F)(F)F)cc2)c1 (stereo not shown) [Compound 641]
Q: CC(C)(C)c1ccc(Oc2cc(-c3ccc(C#N)cc3)ccc2OCC(=O)O)cc1 [Compound 471]
Compare the recorded Inhibition Rate of PAI-1 Activity (%) of P and Q ; state which is larger. # answer = label of selected item
P

###

- EXPERIMENTAL_TARGET: recombinant human PAI-1 (Homo sapiens)
- Construct: purchased Molecular Innovations, Inc
- ASSAY_REMARKS: Test Example 2: human PAI-1 inhibitory activity (tPA fluorogenic substrate, pH 7.4 HEPES buffer)
- Assay type: biochemical
- CONDITION_PARAMETERS: human PAI-1; compound concentration 0.3 μM
READOUT_KIND: Inhibition Rate of PAI-1 Activity (%)

- COMPOUND: "CC(C)c1ccc(Sc2cc(-c3ccc(OC(F)(F)F)cc3)ccc2/C=C/C(=O)O)cc1"
  READOUT_KIND: "Inhibition Rate of PAI-1 Activity (%)"
  EXPERIMENTAL_VALUE: 39

A: CC(C)(C)c1ccc(Oc2cc(-c3ccc(C(C)(C)C)cc3)ccc2CCC(=O)O)cc1
B: O=C(O)C(=O)N(CCCCc1ccccc1)c1ccc(-c2ccc3ccccc3c2)cc1
C: CCCCCCCOc1cc(N(CCCCc2ccccc2)C(=O)C(=O)O)ccc1-c1ccc(OC(F)(F)F)cc1
D: CC(C)(C)c1ccc(Oc2cc(-c3cc(Cl)ccc3Cl)ccc2/C=C/C(=O)O)cc1
E: CC(C)(C)c1ccc(Oc2ccc(Nc3ccc(OC(F)(F)F)cc3)cc2CCC(=O)O)cc1
Give the ascending ranking of the items by reported Inhibition Rate of PAI-1 Activity (%). Field: ranking. Enter the labels in the order requested.
E, D, B, A, C
(E: 0%, D: 8%, B: 12%, A: 24%, C: 40%)

I: O=C(O)/C=C/c1ccc(-c2ccc(OC(F)(F)F)cc2)cc1OCCCSc1ccccc1
II: CC(C)(C)c1ccc(-c2ccc(/C=C/C(=O)O)c(Oc3ccc(OC(F)(F)F)cc3)c2)cc1
Dear colleague, could you let me know whether I or II has the lower recorded Inhibition Rate of PAI-1 Activity (%)? Thanks. # answer = label of selected item
I
